- assay target: cynomolgus monkey DLL4 extracellular domain (cynomolgus monkey)
- assay remarks: Biacore SPR
Kindly state kon for each of the entries shown.
I only need the number, in M⁻¹ s⁻¹, no unit after it.

INPUT: May I ask what kon has been recorded for h1A11.A2 (antibody, V domains shown) VH: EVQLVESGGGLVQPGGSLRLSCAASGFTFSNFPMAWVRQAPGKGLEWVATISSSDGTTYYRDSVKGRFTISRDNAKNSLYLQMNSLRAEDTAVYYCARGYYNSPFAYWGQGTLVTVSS VL: DIQMTQSPSSLSASVGDRVTITCRASQDIYINLAWYQQKPGKSPKLLIFDTNDLADGVPSRFSGSGSGTDFTLTISSLQPEDFATYYCQQYDYVPPTFGQGTKLEIK ?
OUTPUT: 134000

INPUT: Consider next the binder 32C7 rat monoclonal antibody (antibody, V domains shown) VH: EVQLVESGGGLVQPGRSLKLSCLASGFPFSSVWMTWIRQAPGKGLEWIATITNSGASTYYSASVKGRFTISRDNVKSTLYLQMTSLGSEDTATYYCTRVGTSFDYWGQGVMVTVSS VL: DIQMTQSPASLSASLGETVTIECRASDDIYNGLAWFQQKPGKSPQLLIYDANTLHTGVPSRFSGSGSGTQFSLKINSLQSEDVASYFCQQFYDYPPYTFGAGTKLELKR in the same way.
OUTPUT: 220000

INPUT: Try h1A11.A6 (antibody, V domains shown) VH: EVQLVESGGGLVQPGGSLRLSCAASGFTFRHFPMAWVRQAPGKGLEWVATISSSDAWPSYRDSVKGRFTISRDNAKNSLYLQMNSLRAEDTAVYYCSRGYYNSPFAYWGQGTLVTVSS VL: DIQMTQSPSSLSASVGDRVTITCRASEDIYSNLAWYQQKPGKAPKLLIYDTNNLADGVPSRFSGSGSGTDFTLTISSLQPEDFATYYCQQYNNYPPTFGQGTKLEIK next.
OUTPUT: 171000
